Reference for the values: patent US20260174875A1

For each of the binders below, state its hGLP-1R Potency, 1% HSA, EC50 [pM].
- system_under_test: human GLP-1 receptor (human, UniProt P43220 24-463)
- assay_comment: cell-based or functional assay
Numbered stars: 1 amine (or outer) side, 2 acyl side, 3 side chain; on linkers, the order of the positions; unused ones are H or OH. Square brackets hold non-standard residues; d marks the D form. Side chains are listed from the residue outwards. * marks the point of attachment. C18 diacid = O=C(O)CCCCCCCCCCCCCCCCC(=O)*; γGlu = O=C(O)[C@H](CCC(=O)[*:2])N[*:1]; Chem. 28 = not defined here; AEEA = NCCOCCOCC(=O)O; Aib = CC(C)(N)C(=O)O

Query (binder): Compound 97 (peptide) peptide: Y[Aib]EGTFTSDYSILLEEQAAREFIEWLLAGGPSSGAGQAPGASHLSTAQTQRLSAELHK([AEEA-AEEA-γGlu-C18 diacid])LATLPRTETGSGSP-NH2 ; field requested: hGLP-1R Potency, 1% HSA, EC50 [pM]
109 pM

***
Quick one: hGLP-1R Potency, 1% HSA, EC50 [pM] of Compound 51 (reading uncertain) peptide: H[Aib]HGTFTSDYSILLEEQAAREFIEWLLAGGPSSGALAQTLAQTLASHLSTAQTQRLSAELHK(Chem. 28)LATLPRTETGSGSP-NH2 ?
32.2 pM
